Could you please report measured IC50 for the items listed next?
Target: GLUT1 (Homo sapiens, UniProt P11166)
Sequence (P11166 1-492): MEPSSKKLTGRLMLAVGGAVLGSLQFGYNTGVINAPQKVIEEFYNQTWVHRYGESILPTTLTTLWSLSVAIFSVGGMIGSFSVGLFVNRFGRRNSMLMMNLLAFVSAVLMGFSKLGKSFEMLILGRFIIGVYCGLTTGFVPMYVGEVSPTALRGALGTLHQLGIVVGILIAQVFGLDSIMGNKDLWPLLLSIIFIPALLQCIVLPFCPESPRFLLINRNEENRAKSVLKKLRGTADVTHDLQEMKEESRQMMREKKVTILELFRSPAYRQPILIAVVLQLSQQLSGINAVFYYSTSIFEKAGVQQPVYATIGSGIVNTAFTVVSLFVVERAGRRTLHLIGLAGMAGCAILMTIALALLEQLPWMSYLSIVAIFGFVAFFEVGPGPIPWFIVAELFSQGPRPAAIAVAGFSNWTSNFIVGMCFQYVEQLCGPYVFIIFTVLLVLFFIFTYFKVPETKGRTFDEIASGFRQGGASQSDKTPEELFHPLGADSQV
Test: Indirect measurement of GLUT1 activity by quantification of intracellular ATP levels (glucose induced ATP increase)
Assay type: cell-based
Design: endogenous in cells; host or cells: DLD1 or CHO-K1
Conditions: read-out: IC50 regarding glucose induced ATP increase (GLUT1 inhibition)
Text: Indirect Measurement of GLUT1 and GLUT2 Activity by Quantification of Intracellular ATP Levels It is well known that a combination of small-molecule inhibitors of mitochondrial electron transport chain and glucose catabolism synergistically suppress ATP production and impair cellular viability (Ulanovskaya et al., 2008, 2011; Liu, et al. 2001). We therefore used DLD1 or CHO-K1 cells in combination with an oxidative phosphorylation inhibitor to identify GLUT1 and GLUT2 inhibitors. […]
Reply numerically in nM, unit not repeated.

# input # return recorded IC50 for entry Cc1nn(Cc2ccc(OC(F)(F)F)cc2)c(C)c1NC(=O)c1cc(C(F)(F)F)nc2ccc(Br)cc12
# output 60.4

# input # return recorded IC50 for entry Cc1nn(Cc2ccc(F)c(F)c2)c(C)c1NC(=O)c1cc(C(N)=O)nc2cccc(F)c12
# output 12.3

# input # return recorded IC50 for entry Cc1nn(Cc2ccc(C(=O)NCc3ccccc3)cc2)c(C)c1NC(=O)c1cc(C(F)(F)F)nc2ccc(Br)cc12
# output 50

# input # return recorded IC50 for entry Cc1c(NC(=O)c2cc(C(N)=O)nc3cccc(F)c23)c(C(F)(F)F)nn1Cc1ncc(C#N)cn1
# output 6.7

# input # return recorded IC50 for entry Cc1nn(Cc2ccc(C(=O)NC(C)(CO)CO)cc2)c(C)c1NC(=O)c1cc(C(F)(F)F)nc2ccc(Br)cc12
# output 41.1

# input # return recorded IC50 for entry CCOC(=O)N=S(C)(=O)c1ccc(Cn2nc(C)c(NC(=O)c3cc(C(N)=O)nc4ccccc34)c2C)cc1 (racemic)
# output 642

# input # return recorded IC50 for entry COc1cc(C(=O)Nc2c(C(F)(F)F)nn(Cc3ccc(C#N)cc3)c2C)c2cc(F)ccc2n1
# output 18.9

# input # return recorded IC50 for entry Cc1nn(C(C)c2ccc(C#N)cc2)c(C)c1NC(=O)c1cc(C(N)=O)nc2cc(F)c(Cl)cc12 (racemic)
# output 1.3

# input # return recorded IC50 for entry Cc1nn(Cc2cccc(S(C)(=O)=O)c2)c(C)c1NC(=O)c1cc(C(N)=O)nc2cccc(F)c12
# output 168
